Every entry's value here was drawn from PubChem BioAssay AID1159580.

Collected normalized growth values appear next to each entry.
Assay: chemical genetic growth profiling, strain panel (AID 1159580);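 further: tested at 20 µM; growth read once vehicle control cultures reached saturation at 30 °C; 1 = growth at the plate median or of vehicle wells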
Details: S. cerevisiae deletion strains, growth OD, locus YOR231W, strain MKK1, stronger effect = lower value
Out of some 5,500 compounds screened, about 2,000 (36%) were called active. Another 18% or so got no clear call; they are omitted. This is one part of the list.
Reply briefly: the number, and no unit.

Known normalized growth results, listed for orientation:
compound: Cc1oc(C(C)(C)C)cc1-c1cc(N)n(-c2ccc(I)cc2)n1
normalized growth: 0.927
//
compound: Nc1c2ccccc2nc2ccccc12 (tested in a mixture with another compound)
normalized growth: 0.41
//
compound: COC1=C[C@@H]2[C@@H]3Cc4ccc(OC)c(O)c4[C@]2(CCN3C)CC1=O
normalized growth: 0.998
//
compound: COC(=O)C[C@H]1C(C)(C)C(=O)[C@@H]2CC3C4=CC(=O)O[C@@H](c5ccoc5)[C@]4(C)CCC3[C@@]1(C)C2=O (some centres undefined)
normalized growth: 0.984
//
compound: O=S(=O)(NC(=S)Nc1ccc(Cl)c(Cl)c1)c1ccccc1
normalized growth: 1.02
//
compound: CC(C)(C)C(=O)N(Cc1cccnc1)Cc1ccc(Cl)cc1Cl
normalized growth: 1.02

Q: Please give the documented normalized growth of Nc1c2c(nc3ccccc13)CCCC2O (centres undefined)
Ans: 0.977

Q: Look up and report measured normalized growth for this entry: S=C(NCc1ccccc1)Nc1ccc(Cl)c(Cl)c1
Ans: 0.862

Q: Output normalized growth of CCOc1ccc2nc3cc(N)ccc3c(N)c2c1
Ans: 0.901

Q: For CC(C)CC(N(C)C)C1(c2ccc(Cl)cc2)CCC1 (centres undefined) , write its normalized growth.
Ans: 1.03

Q: Please report the measured normalized growth for CCOc1ccc2nc(S(N)(=O)=O)sc2c1
Ans: 0.955

###

Assay: chemical genetic growth profiling, strain panel (AID 1159580)
Details: S. cerevisiae deletion strains, growth OD, locus YDR159W, strain sac3, stronger effect = lower value
Hit rate of the full screen: of about 5,500 compounds, about 2,000 (36%) were called active. Not shown: some 18% with an inconclusive outcome. Some of the results follow.
normalized growth values by entry
Please state the value as a number alone, without comment.

Example entries and their recorded answers appear below.
compound: N=C(N)SCCN
readout_number: 0.995
//
compound: Cc1cc(O)cc(C)c1Cl
readout_number: 0.588
//
compound: NC12CC3CC(CC(C3)C1)C2
readout_number: 0.989
//
compound: O=C(Nc1ccc(C(=O)O)c(O)c1)c1ccccc1
readout_number: 0.985

Q: Given CC(C)=CCCC1(C)C=Cc2c(O)c3c(c(CC=C(C)C)c2O1)OC12C(=CCCC1C(C)(C)O[C@@]2(C/C=C(\C)C(=O)O)C(=O)O)C3=O (stereo not given in full) , respond with its normalized growth.
Ans: 0.694

###

Experiment: chemical genetic growth profiling, strain panel (AID 1159580)
Conditions: S. cerevisiae deletion strains, growth OD, locus YPL153C, strain RAD53, stronger effect = lower value
Out of some 5,500 compounds screened, about 2,000 (36%) were called active. Not shown: some 18% with an inconclusive outcome. This is one part of the list.
Reported normalized growth by item:
Lab note: record just the number, no unit beside it.

compound: OC1CCN(c2cc(C(F)(F)F)nc3cc(Cl)cc(Cl)c23)CC1
assay_endpoint: normalized growth
readout_number: 0.937

compound: CCOC(=O)c1cc(CC)sc1NC(=O)c1ccc([N+](=O)[O-])o1
assay_endpoint: normalized growth
readout_number: 0.487

compound: S=C(Nc1ccc(Cl)cc1)SCc1c(Cl)cccc1Cl
assay_endpoint: normalized growth
readout_number: 0.949

compound: Fc1cccc(Cl)c1CSc1n[nH]c(-c2cc(C(F)(F)F)cc(C(F)(F)F)c2)n1
assay_endpoint: normalized growth
readout_number: 0.894

Q: Quote normalized growth reported for CC(C)(C)C(=O)N(Cc1cccnc1)Cc1ccc(Cl)cc1Cl please.
Ans: 0.917

Q: Report normalized growth for O=[N+]([O-])c1cnc(Sc2nnc(SCc3cccc(C(F)(F)F)c3)s2)s1
Ans: 0.0944

Q: Specify measured normalized growth for Cc1oc(C(C)(C)C)cc1-c1cc(N)n(-c2ccc(I)cc2)n1 .
Ans: 0.987

Q: Return reported normalized growth. Input compound: Clc1ccc2c(c1)c1ccccc1n2CN1CCOCC1
Ans: 0.786

Q: Return the recorded normalized growth value; entry: Nc1ccc(Sc2ccccc2)nc1Sc1ccccc1
Ans: 0.906

###

Test: chemical genetic growth profiling, strain panel (AID 1159580);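 further: tested at 20 µM; growth read once vehicle control cultures reached saturation at 30 °C; 1 = growth at the plate median or of vehicle wells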
Settings: S. cerevisiae deletion strains, growth OD, locus YLR113W, strain HOG1, stronger effect = lower value
About 2,000 (36%) of roughly 5,500 compounds were called active. Roughly 18% stayed inconclusive and do not appear here. The list shows a part of the results.
Please respond with T when measured normalized growth is strictly beneath 1, and with F in all other cases.

Here's what some known entries look like.
molecule: COc1cccc2c1C(=O)c1c(O)c3c(c(O)c1C2=O)C[C@@](O)(C(=O)CO)C[C@@H]3OC1C[C@H](N)[C@H](O)[C@H](C)O1 (some centres undefined)
label_class: T
--
molecule: COc1cccc2c1C(=O)c1c(O)c3c(c(O)c1C2=O)C[C@@](O)(C(=O)CO)C[C@@H]3O[C@H]1C[C@H](N)[C@@H](O)[C@H](C)O1
label_class: T
--
molecule: Cc1nc(-c2cccnc2)nc(NCc2ccccc2)c1Cl
label_class: T
--
molecule: Nc1ccc(S(=O)(=O)Nc2cnc3ccccc3n2)cc1
label_class: T
--
molecule: C#C[C@]1(OC(C)=O)CCC2C3CCC4=C/C(=N\O)CCC4C3CC[C@@]21CC (some centres undefined)
label_class: T
--
molecule: C#C[C@]1(O)CCC2C3CCC4=CC(=O)CC[C@@H]4C3CC[C@@]21C (some centres undefined)
label_class: T

Q: Bench note: check whether C=CCc1c(CCC)nc(-c2ccccn2)[nH]c1=O shows normalized growth below 1
Ans: T

Q: Determine if C#C[C@]1(OC(C)=O)CCC2C3CCC4=CC(=O)CC[C@@H]4C3CC[C@@]21C (some centres undefined) shows normalized growth strictly lower than 1.
Ans: T

Q: Say whether its normalized growth is strictly beneath 1. Entry: Cc1nc(-c2ccccn2)[nH]c(=O)c1Cc1c(Cl)cccc1Cl
Ans: T

Q: Please let me know if C[C@@H]1C(=O)O[C@H]2[C@H]1CC[C@@]1(C)C=CC(=O)[C@@]3(C)O[C@@]213 shows normalized growth below 1.
Ans: F

Q: Hello, is normalized growth of the following molecule strictly smaller than 1? O=C(Nc1ccccc1Sc1ccc([N+](=O)[O-])cc1[N+](=O)[O-])C(Cl)(Cl)Cl
Ans: F

Q: Consider the molecule OC1CCN(c2cc(C(F)(F)F)nc3cc(Cl)cc(Cl)c23)CC1 . Is its normalized growth strictly less than 1?
Ans: T

Q: I wonder whether CC(C)=CCCC1(C)C=Cc2c(O)c3c(c(CC=C(C)C)c2O1)OC12C(CC4CC1C(C)(C)OC2(C/C=C(/C)C(=O)O)C4O)C3=O (centres undefined) has normalized growth below 1. Can you tell?
Ans: T

###

Assay: chemical genetic growth profiling, strain panel (AID 1159580);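 further: tested at 20 µM; growth read once vehicle control cultures reached saturation at 30 °C; 1 = growth at the plate median or of vehicle wells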
Settings: S. cerevisiae deletion strains, growth OD, locus YER111C, strain swi4, stronger effect = lower value
The campaign covered roughly 5,500 compounds. About 2,000 (36%) were called active. Roughly 18% stayed inconclusive and do not appear here. Some of the results follow.
Decide using normalized growth alone. Strictly below 1: satisfied. Equal to or above 1: not satisfied.

molecule: Cc1ccc(N=CN(C)C=Nc2ccc(C)cc2C)c(C)c1
label_class: satisfied

Q: Hi there! Is normalized growth for NC(Cc1c[nH]c2ccccc12)C(=O)O (stereo not given) below 1, do you know?
Ans: not satisfied

Q: Given COc1cccc2c1C(=O)c1c(O)c3c(c(O)c1C2=O)C[C@@](O)(C(=O)CO)C[C@@H]3OC1C[C@H](N)[C@H](O)[C@H](C)O1 (stereo not given in full) , is recorded normalized growth strictly lower than 1?
Ans: satisfied

Q: Problem: For the molecule Cc1ccc(-c2cc(C(F)(F)F)nn2-c2ccc(S(N)(=O)=O)cc2)cc1 , is normalized growth under 1?
Ans: not satisfied

###

Listed compounds paired with reported normalized growth
Test: chemical genetic growth profiling, strain panel (AID 1159580);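 further: tested at 20 µM; growth read once vehicle control cultures reached saturation at 30 °C; 1 = growth at the plate median or of vehicle wells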
Details: S. cerevisiae deletion strains, growth OD, locus YLR320W, strain mms22, stronger effect = lower value
Among all 5,500 compounds or so, about 2,000 (36%) were called active. About 18% were inconclusive and are not listed. This is one part of the list.

Record excerpt, results attached:
compound: Cc1ccc(N=CN(C)C=Nc2ccc(C)cc2C)c(C)c1
normalized growth: 0.969 (inactive)
--
compound: COc1c(-c2coc3cc4c(cc3c2=O)CC(O)C(C)(C)O4)ccc2c1C=CC(C)(C)O2 (stereo not given)
normalized growth: 0.962 (inactive)
--
compound: COc1c(-c2coc3cc4c(cc3c2=O)CC(OC(C)=O)C(C)(C)O4)ccc2c1C=CC(C)(C)O2 (stereo not given)
normalized growth: 1.03 (inactive)
--
compound: COc1cc(N)c(Cl)cc1C(=O)NC1CCN(Cc2ccccc2)CC1
normalized growth: 1.01 (inactive)

// switching to the query compound
Q: Report measured normalized growth; entry is COC1=C[C@@H]2[C@@H]3Cc4ccc(OC)c(O)c4[C@]2(CCN3C)CC1=O
Ans: 1 (inactive)
